Values were extracted from patent US6048887A.

Tested on: SW480
Test details: Antiproliferative Activity In Cell Line SW480 (MTT)
Format: cell-based
Run conditions: Homo sapiens, 144 h, 6 days post addition, average of at least three separate experiments
pIC50: −log10 of the molar value.
Parameter measured: pIC50

>>> value_reported("Cn1cc(C2=C(c3cn(CO)c4ccccc34)C(=O)NC2=O)c2ccc([N+](=O)[O-])cc21")
6.66
>>> value_reported("Cn1cc(C2=C(c3c[nH]c4ccccc34)C(=O)NC2=O)c2ccc([N+](=O)[O-])cc21")
6.70
>>> value_reported("Cn1cc(C2=C(c3c[nH]c4cc([N+](=O)[O-])ccc34)C(=O)NC2=O)c2ccccc21")
5.73
